Biological target: T1, Recombinant MBP-mutCALR Type 1 fusion protein (human)
T1 construct: custom made at Cepter; also called recombinant mutCALR protein
Test: SPR, IgG captured, 1:1 fit, Exp. 1
Experimental: Experiment 1: Recombinant MBP-mutCALR Type 1 fusion protein was custom made at Cepter (cepterbiopartners.com). Data for the interaction of antibodies with recombinant MBP-mutCALR Type 1 fusion protein were collected at 25° C. on a Biacore 8K instrument (Cytiva, Marlborough, Mass.), and all reagents were obtained from Cytiva unless otherwise specified. The experiments were conducted using Tris-buffered saline (pH 7.2), 0.005% Surfactant P20, 1 mM CaCl₂) as running buffer. […]
# key: entry, value: kon
Give just the number in M⁻¹ s⁻¹; leave the unit off.

Example binders with recorded kon:
{"columns": ["binder", "measure", "display_unit", "value_observed"],
 "data": [
  ["anti-mutCALR antibody clone 23 (antibody, human IgG1, lambda, V domains shown, human IgG1) VH: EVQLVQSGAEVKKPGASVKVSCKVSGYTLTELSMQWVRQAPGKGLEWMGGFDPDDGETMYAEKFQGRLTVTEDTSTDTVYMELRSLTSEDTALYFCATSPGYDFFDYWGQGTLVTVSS VL: SYVLTQPPSVSVAPGQTARITCGGNNIGIKSVHWYQQKPGQAPVLVVYDDSDRPSGIPERFSGSNSGNTATLTINRVEAGDEADYYCQVWDSSNDLLIFGGGTKLTVLG", "kon", "M⁻¹ s⁻¹", 785000],
  ["anti-mutCALR antibody clone 3 (antibody, human IgG1, lambda, V domains shown, human IgG1) VH: EVQLVQSGAEVKKPGASVKVSCKVSGYTLTELSMQWVRQAPGKGLEWMGGFDPDDGETMYAERFQGRLTVTEDTSTDTVYMELRSLTSEDTALYFCATSPGYDFFDYWGQGTLVTVSS VL: SYVLTQPPSVSVAPGQTARITCGGNNIGSKSVHWYQQKPGQAPVLVVYDDSDRPSGIPERFSGSNSGNTATLTINRVEAGDEADYYCQVWDSSNDLLIFGGGTKLTVLG", "kon", "M⁻¹ s⁻¹", "2.08e+06"]
]}

Value of kon reported for the binder anti-mutCALR antibody clone 5 (antibody, human IgG1, lambda, V domains shown, human IgG1) VH: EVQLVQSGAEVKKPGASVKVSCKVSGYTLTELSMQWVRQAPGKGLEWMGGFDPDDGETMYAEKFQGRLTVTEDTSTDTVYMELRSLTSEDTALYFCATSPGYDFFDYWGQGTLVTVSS VL: SYVLTQPPSVSVAPGQTASITCVGTNFGSKNVHWYQQRPGQAPVLVVYDDSDRPSGIPERFSGSNSGNTATLTISRVEAGDEADYYCQVWDSSSDHLIFGGGTKLTVLG is 935000
